assay: gradient 5% acetonitrile 3 min, to 50% in 2 min, to 85% in 15 min, held 3 min, 100 µL/min; conditions: column: Zorbax Extend-C18 2.1 x 50 mm; eluents: water / acetonitrile, 0.1% formic acid
Measure name: RP-LC retention time (s)
Numeric only. Scale: s

1. CC(=O)N1c2ccc(S(=O)(=O)N3CCCCC3)cc2CC1C(=O)NCCN(C)C (centres undefined) ... 601
2. Cc1cc(NC(=O)Cn2ccn3nc(-c4ccccc4)c(CO)c3c2=O)ccc1Br ... 917
3. CC(C)c1ccc(-c2nc(C3CC(=O)N(c4ccc(Cl)cc4)C3)no2)cc1 (centres undefined) ... 1300

Look up and report measured RP-LC retention time for this entry: Cc1c(-c2cccc(NC(=O)c3cc(Br)ccc3Cl)c2)nc2ncccn12 716

Specify measured RP-LC retention time for Cc1ccccc1CNC(=O)C1(C)CCN(S(=O)(=O)c2ccc(C3CCCCC3)cc2)CC1 . 1310

Identify RP-LC retention time associated with the molecule COC(=O)c1cccc(COC(=O)C2=CN(Cc3ccccc3)S(=O)(=O)N=C2C)c1 1060

Dear colleague, please send me the reported RP-LC retention time for Cc1ccc(C(=O)N(CC(=O)N(Cc2ccco2)CC2CCCO2)C(C)(C)C)cc1 (centres undefined) when you can. 907

Note down RP-LC retention time recorded for O=C(C1COc2ccccc2O1)N1CCN(Cc2nc3ccccc3[nH]2)CC1 (centres undefined) 578

Quick one: give measured RP-LC retention time for CCOc1ccc(NC(=O)C2(C)Oc3cccnc3N(C(C)C)C2=O)cc1 (centres undefined) 1000

Check the records and state RP-LC retention time for COc1ccc(OC)c(NC(=O)N2CCCC(C)(C(=O)NCc3ccccc3C)C2)c1 (centres undefined) 912

Answer with reported RP-LC retention time of COc1ccc(F)cc1S(=O)(=O)N1CCCC(Cn2c(C3CC3)nc3cccnc32)C1 (centres undefined) 742

Measured values drawn from the METLIN SMRT retention time set (Domingo-Almenara et al. 2019) for this set.
